These data points were gathered from paper PMC12483202.

# run description: Single oral dose (5 mg/kg) pharmacokinetics of firocoxib in koalas, plasma HPLC, non-compartmental analysis;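 note: healthy adult koalas, three per sex, anaesthetised the day before dosing for cephalic vein catheterisation, with serial blood draws and firocoxib in plasma quantified by HPLC using fluorescence detection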
# condition summary: male, koala (Phascolarctos cinereus), plasma, po, 5 mg/kg, Firocoxib plasma concentration, K2 male; 8 h; single oral 5 mg/kg
measured metric: concentration at 8 h (ng/mL)
Could you give me the number in ng/mL? Just the number is fine.

// query concentration at 8 h lookup needed for CC1(C)OC(=O)C(OCC2CC2)=C1c1ccc(S(C)(=O)=O)cc1 [firocoxib] , thanks.
// result 118

----------
# run description: Repeated oral dosing (5 mg/kg every 12 h, six doses) plasma trough concentrations in koalas
# Format: in vivo
# condition summary: male, koala (Phascolarctos cinereus), plasma, arithmetic mean, males, 24 h, 5 mg/kg oral every 12 h, read-out: Firocoxib trough plasma concentration
measured metric: concentration at 24 h (ng/mL)
Numeric only. Scale: ng/mL

// query Item under review: CC1(C)OC(=O)C(OCC2CC2)=C1c1ccc(S(C)(=O)=O)cc1 [firocoxib] . Reported concentration at 24 h?
// result 33
